- System: NCI-H226 lung
- Test Protocol: NCI-60 one-dose screen, 48 h (100 = growth as untreated, 0 = no growth, -100 = all killed)
- Test Parameters: 10 µM unless noted
The panel holds about 83,000 compounds, 20% with a hit somewhere; the sample as a whole holds those more often.
Answer each item with its documented growth.
Value expressed in %; do not type the unit.

What does the record list as growth for COc1ccc(-c2cc(-c3ccc(Cl)cc3)c(C#N)c(=O)n2Cc2ccc(C(=O)Nc3ccccc3N)cc2)cc1 ? 81.2

Which measured growth value corresponds to O=C(/C=C/c1ccco1)Nc1ncc(Cc2cccc(C(F)(F)F)c2)s1 ? 33.2

Fill in: growth of Nc1c(C(=O)Nc2ccncc2)sc2nc3c(cc12)C(O)CCC3 (stereo not drawn) is ___ 90.2

So what does the record say about growth for Nc1cc(C(=O)NC[C@H]2CN(c3ccc(N4CCC(C(=O)O)CC4)cc3)C(=O)O2)ccc1Cl ? 100

Please report the recorded growth for Cc1cccc(/C=C2\CN(C(=O)OC(C)(C)C)C/C(=C\c3cccc(C)c3)C2=O)c1 . 99.6

Reported growth, molecule C=C(CBr)[C@@H]1CC[C@]2(C(=O)O)CC[C@]3(C)[C@H](CC[C@@H]4[C@@]5(C)CCC(=O)C(C)(C)[C@@H]5CC[C@]43C)[C@@H]12 : ____ 73.2

Fill in: growth of Cc1cn(-c2cc(NC(=O)c3cncc(C#Cc4cnc(N)c5ncccc45)c3)cc(C(F)(F)F)c2)cn1 is ___ 45.7

Need growth of COC(=O)/C=C1/SC(=Nc2cccc(OC)c2)N(CCc2c[nH]c3ccc(O)cc23)C1=O , thanks. 89.6

* * *

- Test system: SK-MEL-5 melanoma
- Test Protocol: NCI-60 one-dose screen, 48 h (100 = growth as untreated, 0 = no growth, -100 = all killed)
- Test Parameters: 10 µM unless noted
The panel holds about 83,000 compounds, 20% with a hit somewhere; the sample as a whole holds those more often.
So basically, if growth comes in under 50% it's TRUE, and if it's 50% or more it's FALSE.

Record CCOc1ccccc1Cn1ccnc1CCc1c(Cl)c(O)cc(O)c1C(=O)OC : is its growth strictly below 50%? FALSE

API: query returns whether the molecule falls strictly under 50% in growth. Query: [O-]/[N+](=C\c1ccc(-n2cc(Cc3ccccc3Cc3cn(-c4ccc(/C=[N+](/[O-])c5ccccc5)cc4)nn3)nn2)cc1)c1ccccc1 FALSE

Lab note: confirm whether the reported growth for this molecule is below 50%, equality not counting. molecule: CCOC(=O)n1ccn(C)c1=S FALSE

Determine whether this molecule shows growth lower than 50% (ties excluded): O=C(/C=C/c1cccs1)Nc1ncc(Cc2ccccc2F)s1 TRUE

Field: below-cutoff. Rule: recorded growth strictly less than 50%. Subject: O=S(=O)(NCCCNc1nccc(-c2c(-c3ccc(F)c(O)c3)nc3occn23)n1)c1ccc(Cl)cc1 TRUE

A record lists COC(=O)c1c(C)c2n(c1C)C(=O)C(c1ccccc1)=C2 . Is its growth below 50%? FALSE

Dear colleague, could you confirm whether growth of COC(=O)c1cc(N=C2NC(=O)/C(=C/C=C/c3ccccc3)S2)ccc1O falls below 50%? Thanks. TRUE

Does the reported growth of O=C1/C(=C/c2ccccc2Br)COc2ccc(O)cc21 stay below 50%? FALSE

# TODO verify growth < 50% strictly for this molecule: COc1cc(OC)c(/C=C/C(=O)c2c(OC)cccc2OC)c(OC)c1 TRUE
